Values compiled from patent US20220332795A1.

# assayed-target: T1, human CD71 extracellular domain (human, UniProt P02786 89-760, biotinylated)
# T1 construct: extracellular domain; also called hCD71; huCD71 ECD
# T1 sequence (P02786 other isoform, or with tags, fused parts or gaps): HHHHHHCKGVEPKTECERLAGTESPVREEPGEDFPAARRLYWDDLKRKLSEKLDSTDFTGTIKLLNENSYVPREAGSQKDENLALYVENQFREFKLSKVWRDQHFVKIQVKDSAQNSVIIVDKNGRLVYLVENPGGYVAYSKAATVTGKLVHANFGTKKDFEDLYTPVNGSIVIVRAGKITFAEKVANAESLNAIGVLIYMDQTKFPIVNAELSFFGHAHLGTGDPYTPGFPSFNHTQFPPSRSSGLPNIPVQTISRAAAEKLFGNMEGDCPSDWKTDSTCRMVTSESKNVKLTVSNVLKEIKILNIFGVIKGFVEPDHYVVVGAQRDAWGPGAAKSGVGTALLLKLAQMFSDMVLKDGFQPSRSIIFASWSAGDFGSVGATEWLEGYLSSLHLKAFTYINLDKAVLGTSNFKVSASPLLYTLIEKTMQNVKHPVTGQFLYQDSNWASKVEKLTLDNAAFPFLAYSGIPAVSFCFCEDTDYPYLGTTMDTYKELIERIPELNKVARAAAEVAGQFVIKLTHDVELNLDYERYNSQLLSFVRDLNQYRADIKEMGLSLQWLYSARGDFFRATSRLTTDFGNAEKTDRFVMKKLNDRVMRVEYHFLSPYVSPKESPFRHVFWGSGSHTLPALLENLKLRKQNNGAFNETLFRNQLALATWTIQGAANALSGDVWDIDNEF
# measurement-description: solution ELISA screen, signal ratio to HSA control
Lab note: cut-off is 100 ratio. Strictly less in hCD71:HSA is True. Exactly 100 ratio or more is False.

# binder, assigned-label
measured = [
    ("SEQ ID NO 210 (designed binder, not shown: small tags and cut ends) MLPAPKNLVVSRVTEDSARLSWTAPDAAFDSFFIGYLEPQPPGEAINLQVPGSERSYDLTGLKPGTEYNVTIQGVKGGFPSFPLSAVFTT", "True"),
    ("SEQ ID NO 208 (designed binder, not shown: small tags and cut ends) MLPAPKNLVVSRVTEDSARLSWTAPDAAFDSFFIGYLEPQPPGEAIVLAVPGSERSYDLTGLKPGTEYNVTIQGVKGGFPSYPLVAAFTT", "False"),
    ("SEQ ID NO 251 (designed binder, not shown: small tags and cut ends) MLPAPKNLVVSRVTEDSARLSWTAPDAAFDSFFIGYLEPQPPGEAIGLWVPGSERSYDLTGLKPGTEYNVTIQGVKGGFPSDPLQAVFTT", "True"),
    ("SEQ ID NO 268 (designed binder, not shown: small tags and cut ends) MLPAPKNLVVSRVTEDSARLSWTAPDAAFDSFYIAYAEPRPDGEAIYLEVPGSERSYDLTGLKPGTEYSVLIHGVKGGLLSSPLFTT", "True"),
    ("SEQ ID NO 254 (designed binder, not shown: small tags and cut ends) MLPAPKNLVVSRVTEDSARLSWTAPDAAFDSFYIAYAEPRPDGEAILLAVPGSERSYDLTGLKPGTEYSVLIHGVKGGLLSSPLSAKFTT", "False"),
    ("SEQ ID NO 217 (designed binder, not shown: small tags and cut ends) MLPAPKNLVVSRVTEDSARLSWTAPDAAFDSFYIAYAEPRPDGEAIILEVPGSERSYDLTGLKPGTEYSVLIHGVKGGLLSSPLRAVFTT", "False"),
    ("SEQ ID NO 247 (designed binder, not shown: small tags and cut ends) MLPAPKNLVVSRVTEDSARLSWTAPDAAFDSFYIAYAEPRPDGEAILLHVPGSERSYDLTGLKPGTEYSVLIHGVKGGLLSSPLRASFTT", "False"),
    ("SEQ ID NO 269 (designed binder, not shown: small tags and cut ends) MLPAPKNLVVSRVTEDSARLSWTAPDAAFDSFYIAYAEPRPDGEAIWLDVPGSERSYDLTGLKPGTEYSVLIHGVKGGLLSSPLDAYFTT", "True"),
    ("SEQ ID NO 218 (designed binder, not shown: small tags and cut ends) MLPAPKNLVVSRVTEDSARLSWTAPDAAFDSFYIAYAEPRPDGEAIHLVVPGSERSYDLTGLKPGTEYSVLIHGVKGGLLSSPLSAIFTT", "True"),
    ("SEQ ID NO 226 (designed binder, not shown: small tags and cut ends) MLPAPKNLVVSRVTEDSARLSWTAPDAAFDSFYIAYAEPRPDGEAIGLHVPGSERSYDLTGLKPGTEYSVLIHGVKGGLLSSPLTASFTT", "False"),
    ("SEQ ID NO 239 (designed binder, not shown: small tags and cut ends) MLPAPKNLVVSRVTEDSARLSWTAPDAAFDSFYIAYAEPRPDGEAIQLVVPGSERSYDLTGLKPGTEYSVLIHGVKGGLLSSPLYAIFTT", "True"),
]
